Attribution: the supplement of paper PMC11061612

- Test system: T84 (Colorectal Carcinoma)
- Assay text: combination Emax (second highest fraction inhibited in the dose matrix, 72 h); higher = more inhibition; extreme values may be limits of the assay
Measured combination Emax, listed per entry.

# Molecule, combination Emax
records = [
    ("O=C(c1cc(Cc2n[nH]c(=O)c3ccccc23)ccc1F)N1CCN(C(=O)C2CC2)CC1 [Olaparib] + CN(CC[C@H](CSC1=CC=CC=C1)NC2=C(C=C(C=C2)S(=O)(=O)NC(=O)C3=CC=C(C=C3)N4CCC(CC4)[C@H](C5=CC=CC=C5C6=CC=C(C=C6)Cl)O)S(=O)(=O)C(F)(F)F)CCO [AZD4320] (first compound max 10 µM, 7x7, partner max 1 µM)", 0.122),
]

// recorded combination Emax for COc1cccc2c1C(=O)c1c(O)c3c(c(O)c1C2=O)C[C@@](O)(C(=O)CO)C[C@@H]3O[C@H]1C[C@H](N)[C@H](O)[C@H](C)O1 [Doxorubicin] + Cc1cc2ncnn2cc1Nc1ncc2c(n1)n(C1CCOCC1)c(=O)n2C [AZD7648] (first compound max 1 µM, 7x7, partner max 10 µM) : 0.163
